Listed here: items and their measured protein stability index.
B1: TEKT4 (parent)
chain: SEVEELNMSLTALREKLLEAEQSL

Variants of: B1
Measurement notes: protein stability index of a GFP-peptide fusion (GPS, HEK-293T) (PSI 1-6); higher = more stable;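 also: lentivirally expressed fusions sorted by FACS into six bins by GFP to DsRed ratio, PSI derived from sequencing read proportions per bin multiplied by bin number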
Experimental parameters: c terminus: a fixed tail appended

- Alteration: "S1G"
  protein stability index: 3.25
- Alteration: "L17Q"
  protein stability index: 4.98
- Alteration: "L6Q"
  protein stability index: 3.51
- Alteration: "S23V"
  protein stability index: 2.87
- Alteration: "E21S"
  protein stability index: 2.94
- Alteration: "E21H"
  protein stability index: 3.06
- Alteration: "L24M"
  protein stability index: 4.18
- Alteration: "S9Y"
  protein stability index: 2.33
- Alteration: "A12H"
  protein stability index: 2.76
- Alteration: "L24F"
  protein stability index: 4.51
- Alteration: "Q22M"
  protein stability index: 1.91
- Alteration: "E2N"
  protein stability index: 2.55
- Alteration: "S23L"
  protein stability index: 2.37
